Parameter pIC50: see the listing below.
Biological target: 15-hydroxyprostaglandin dehydrogenase [NAD(+)] (Homo sapiens)
Test: In vitro Assay (1 nM)
pIC50: −log10 of the molar value.
experimental-endpoint: pIC50

CCCC[S+]([O-])c1sc2nc(-c3cnccc3C)cc(-c3cnc(C)n3C)c2c1N (stereo not given); 8.66
CCCC[S+]([O-])c1sc2nc(-c3cnc(N)nc3)cc(-c3nccs3)c2c1N (stereo not given); 8.96
COCCC[S+]([O-])c1sc2nc(-c3ccc(N)nc3)cc(-c3cccnc3)c2c1N (stereo not given); 8.60
CCCC[S+]([O-])c1sc2nc(-c3cccnc3)cc(-c3ncsc3C)c2c1N (stereo not given); 9.00
COCCC[S+]([O-])c1sc2nc(-c3cnco3)cc(-c3ccccc3)c2c1N (stereo not given); 9.06
COCCC[S+]([O-])c1sc2nc(-c3cccnc3)cc(-c3cncn3C)c2c1N (stereo not given); 8.85
COCC[S+]([O-])c1sc2nc(-c3ccc(C4COC4)nc3)cc(-c3ccc(F)cc3)c2c1N (stereo not given); 8.62
CCCC[S+]([O-])c1sc2nc(-c3ccc(N)nc3)cc(-c3ccccc3)c2c1N (stereo not given); 8.82
CCCC[S+]([O-])c1sc2nc(-c3cccnc3)cc(-c3cccnc3)c2c1N (stereo not given); 9.09
CCCC[S+]([O-])c1sc2nc(-c3cccnc3)cc(-c3ccc(C#N)cc3)c2c1N (stereo not given); 9.04
CCCC[S+]([O-])c1sc2nc(-c3cccnc3)nc(-c3cncn3C)c2c1N (stereo not given); 8.92
COCC[S+]([O-])c1sc2nc(-c3nccs3)cc(-c3cncn3C)c2c1N (stereo not given); 8.82
COCCC[S+]([O-])c1sc2nc(-c3cccnc3)cc(-c3cn(C)cn3)c2c1N (stereo not given); 8.89
CCCC[S+]([O-])c1sc2nc(-c3cncnc3)cc(-c3cnc(C4CC4)n3C)c2c1N (stereo not given); 8.59
CCCC[S+]([O-])c1sc2nc(-c3cccnc3)nc(-c3cn(C)cn3)c2c1N (stereo not given); 8.89

====

Target: 15-hydroxyprostaglandin dehydrogenase [NAD(+)] (Homo sapiens, UniProt P15428)
Assay: In vitro Assay (1 nM)
pIC50: −log10 of the molar value.
Parameter pIC50: see the listing below.
experimental-endpoint: pIC50

CCCC[S+]([O-])c1sc2nc(-c3cnc(N(C)C)nc3)cc(-c3ccccc3)c2c1N (stereo not given); 8.77
CCOCC[S+]([O-])c1sc2nc(-c3nccs3)cc(-c3cncn3C)c2c1N (stereo not given); 8.74
CCCC[S+]([O-])c1sc2nc(-c3cnn(C)c3)cnc2c1N (stereo not given); 8.55
CCCC[S+]([O-])c1sc2nc(-c3cccnc3)cc(-c3cccc(C#N)c3)c2c1N (stereo not given); 8.96
CCCC[S+]([O-])c1sc2nc(-c3cccnc3)cc(-c3cncn3C)c2c1N (stereo not given); 8.96
COCCC[S@@+]([O-])c1sc2nc(-c3cccnc3)nc(-c3ccc(F)cc3)c2c1N [US20240043440, Example 87A]; 8.89
COCC[S@@+]([O-])c1sc2nc(-c3cccnc3)nc(-c3ccccc3)c2c1N; 9.00
CCCC[S@+]([O-])c1sc2nc(-c3cccnc3)nc(-c3nccn3C)c2c1N [US20240043440, Example 86B]; 7.39
CCCC[S+]([O-])c1sc2nc(-c3cccnc3)nc(-c3nccn3C)c2c1N (stereo not given); 8.96
CCCC[S+]([O-])c1sc2nc(-c3ccncn3)cc(-c3ccccc3)c2c1N (stereo not given); 8.96
COCCC[S+]([O-])c1sc2nc(-c3cnn(C)c3)cc(-c3ccccc3)c2c1N (stereo not given); 8.85
CCCC[S+]([O-])c1sc2nc(-c3cccnc3)nc(-c3cscn3)c2c1N (stereo not given); 9.12
COCCC[S+]([O-])c1sc2nc(-c3cccnc3)nc(-c3ccccc3)c2c1N (stereo not given); 8.85
CCCC[S+]([O-])c1sc2nc(-c3cnc(N)nc3)cc(-c3cnc(C)n3C)c2c1N (stereo not given); 9.03
CCCC[S+]([O-])c1sc2nc(-c3cccnc3)cc(-c3ccccn3)c2c1N (stereo not given); 8.92

====

Target: 15-hydroxyprostaglandin dehydrogenase [NAD(+)] (Homo sapiens, UniProt P15428)
Sequence (P15428 whole entry): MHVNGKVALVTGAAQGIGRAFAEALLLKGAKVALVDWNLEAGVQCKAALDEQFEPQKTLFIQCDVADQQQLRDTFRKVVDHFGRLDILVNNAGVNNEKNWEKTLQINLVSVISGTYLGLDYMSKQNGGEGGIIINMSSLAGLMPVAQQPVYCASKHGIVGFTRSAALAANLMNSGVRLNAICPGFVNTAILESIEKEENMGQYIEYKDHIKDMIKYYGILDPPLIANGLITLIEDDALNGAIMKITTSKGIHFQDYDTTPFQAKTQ
Assay: In vitro Assay (1 nM)
experimental-endpoint: log10 IC50 (log10 of the value in nM)

Cc1ncc(-c2cc(-c3nccs3)nc3sc([S+]([O-])CC(C)C)c(N)c23)n1C (stereo not given) [US20240043440, Example 35]; 0.56
CCCC[S+]([O-])c1sc2nc(-c3ncccc3F)cc(-c3cnc(C)n3C)c2c1N (stereo not given) [US20240043440, Example 45]; 0.34
CCCC[S+]([O-])c1sc2nc(-c3nccs3)nc(-c3nccn3C)c2c1N (stereo not given) [US20240043440, Example 77]; 0.26
CCCC[S+]([O-])c1sc2nc(-c3cccnc3)cc(-c3ccccc3F)c2c1N (stereo not given) [US20240043440, Example 55]; 0.00
CCCC[S+]([O-])c1sc2nc(-c3cccnc3)nc(-c3nccs3)c2c1N (stereo not given) [US20240043440, Example 82]; 0.00
CCCC[S+]([O-])c1sc2nc(-c3ncccn3)cc(-c3ccccc3)c2c1N (stereo not given) [US20240043440, Example 44]; 0.23
CCCC[S+]([O-])c1sc2nc(-c3cccnc3)nc(-c3ccccc3)c2c1N (stereo not given) [US20240043440, Example 74]; 0.08
CCCC[S+]([O-])c1sc2nc(-c3cncnc3)cc(-c3cnc(C)n3C)c2c1N (stereo not given) [US20240043440, Example 39]; 0.08
COCC[S+]([O-])c1sc2nc(-c3cccnc3)cc(-c3cncn3C)c2c1N (stereo not given) [US20240043440, Example 49]; 0.26
CCCC[S+]([O-])c1sc2nc(-c3cnc(NC)nc3)cc(-c3ccccc3)c2c1N (stereo not given) [US20240043440, Example 60]; 0.15
CCCC[S+]([O-])c1sc2nc(-c3cnc(N)nc3)cc(-c3ccc(F)cc3)c2c1N (stereo not given) [US20240043440, Example 61]; 0.04
CCOCC[S+]([O-])c1sc2nc(-c3nccs3)cc(-c3cnc(C)n3C)c2c1N (stereo not given) [US20240043440, Example 34]; 0.49
CCCC[S+]([O-])c1sc2nc(-c3ncccn3)nc(-c3ccccc3)c2c1N (stereo not given) [US20240043440, Example 80]; 1.08
COCCC[S+]([O-])c1sc2nc(-c3nccs3)cc(-c3cncn3C)c2c1N (stereo not given) [US20240043440, Example 37]; 0.26
CCCC[S+]([O-])c1sc2nc(-c3cccnc3)cc(-c3ccncc3)c2c1N (stereo not given) [US20240043440, Example 71]; -0.01

====

Parameter pIC50: see the listing below.
Target: 15-hydroxyprostaglandin dehydrogenase [NAD(+)] (Homo sapiens, UniProt P15428)
Test: In vitro Assay (1 nM)
pIC50: −log10 of the molar value.
experimental-endpoint: pIC50

COCC[S+]([O-])c1sc2nc(-c3cccnc3)nc(-c3ccccc3)c2c1N (centres undefined); 8.82
COCCC[S@@+]([O-])c1sc2nc(-c3cccnc3)nc(-c3ccccc3)c2c1N; 9.00
CCCC[S+]([O-])c1sc2nc(-c3cccnc3)cc(-c3nccs3)c2c1N (centres undefined); 9.00
CCCC[S+]([O-])c1sc2nc(-c3ccccn3)cc(-c3cnc(C)n3C)c2c1N (centres undefined); 8.62

====

Biological target: 15-hydroxyprostaglandin dehydrogenase [NAD(+)] (Homo sapiens, UniProt P15428)
Sequence (P15428 whole entry): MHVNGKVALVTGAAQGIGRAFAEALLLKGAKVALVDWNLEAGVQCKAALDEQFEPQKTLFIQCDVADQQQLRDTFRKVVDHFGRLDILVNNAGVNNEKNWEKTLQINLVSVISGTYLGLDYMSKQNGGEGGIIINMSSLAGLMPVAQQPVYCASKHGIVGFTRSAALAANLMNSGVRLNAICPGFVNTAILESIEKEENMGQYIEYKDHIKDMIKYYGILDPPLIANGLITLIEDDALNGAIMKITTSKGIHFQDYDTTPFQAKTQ
Assay: In vitro Assay (1 nM)
experimental-endpoint: IC50 (nM)

CCCC[S+]([O-])c1sc2nc(-c3cncnc3)nc(-c3ccccc3)c2c1N (configuration not stated); 1.3
CCCC[S+]([O-])c1sc2nc(-c3ccccn3)nc(-c3ccccc3)c2c1N (configuration not stated); 3.6
Cn1cncc1-c1cc(-c2nccs2)nc2sc([S+]([O-])C3CCCCC3)c(N)c12 (configuration not stated); 1.6
CCCC[S@@+]([O-])c1sc2nc(-c3cccnc3)nc(-c3nccn3C)c2c1N [US20240043440, Example 86A]; 0.56
COCCC[S+]([O-])c1sc2nc(-c3cnc(N)nc3)cc(-c3ccccc3)c2c1N (configuration not stated); 1.1
Cn1cncc1-c1cc(-c2nccs2)nc2sc([S+]([O-])C3CCCC3)c(N)c12 (configuration not stated); 1.6
CCCC[S+]([O-])c1sc2nc(-c3cccnc3)cc(-c3cnc(C)n3C)c2c1N (configuration not stated); 1.4
